Target: recombinant human CD38 (human, UniProt P28907 43-300, limits assumed)
Assay: SPR (Biacore 8K), antibody captured, antigen injected;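 note: antibodies held on a CM5 chip through anti-human IgG Fc, antigen in 3-fold serial dilutions, 1 min association then 10 min dissociation at 25 °C, 1:1 Langmuir global fit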
Property label: pKd
One number for each entry, as −log10 of the molar value.

[[record]]
binder = "17E9 (antibody, human IgG1, kappa, V domains shown, Rabbit-human chimeric anti-CD38: rabbit VH and VL on human IgG1 and kappa constant regions) VH: QSVEESGGRLVTPGTPLTLTCTASGFSLSRYYVTWVRQAPGKGLEWIGIIYISGTTYYATWAKGRFTISKSATTVDLRIASPTTEDTATYFCAAAWPVGTYVLPLWGPGTLVTVSS VL: AAVLTQTPSPVSAAVGGTVTIKCQSSQSVVNANNLSWYQQKPGQPPKLLIYLASTLASGVPSRFSGSGSGTQFTLTISSVQSDDAATYYCLGVYDDDGDNAFGGGTEVVVKR"
numeric_result = 9.82

[[record]]
binder = "23B3 (antibody, human IgG1, kappa, V domains shown, Rabbit-human chimeric anti-CD38: rabbit VH and VL on human IgG1 and kappa constant regions) VH: QSVEESGGRLVTPGTPLTLTCTVSGFSLSNYDMTWVRQAPGRGLEWIGVISSGDNTNYARWAKGRFTISKTSSTTVDLKITSPTTEDTATYFCARILYNKGRYYFTFWGPGTLVTVSS VL: AQVLTQTPSSVSAAVGGTVTINCQSSQSIANSDELAWYQQKPGQPPKLLIYDASTLAPGVPSRFSGSGSGTQFTLTISGVQSDDAATYYCQGTVYDSGWYAAFGGGTEVVVKR"
numeric_result = 13.54


// moving on: another record for pKd
Q) Form field: reported pKd of 21G2 (antibody, human IgG1, kappa, V domains shown, Rabbit-human chimeric anti-CD38: rabbit VH and VL on human IgG1 and kappa constant regions) VH: QSVEESGGRLVTPGTPLTLTCTVSGFSLSNYGVSWVRQAPGKGLEWIGYILTSGGTYYANWAQGRFTISKTSTTVDLKITSPTTEDTATYFCGRPKDSDSSAFVSLWGPGTLVTVSS VL: DVVMTQTPASVSEPVGGTVTINCQASESIYSNLAWYQQKPGQPPKLLIYKASTLASGVSSRFKGSGSGTEFTLTISDLESADAATYYCQANHMIVIYGNGFGGGTEVVVKR
A) 9.72

Data provenance: patent US20220002432A1
